I'd be grateful if you could share measured Plant response rating, Crabgrass, Large for these entries.
System: large crabgrass (Digitaria sanguinalis)
procedure-text: Test A pre-/postemergence plant response
Type: in vivo
condition: Preemergence, 31 g ai/ha; 0 to 100 scale, 0 is no effect, 100 is complete control
// print number alone

Could you tell me which Plant response rating, Crabgrass, Large is on file for CCCC(=O)Oc1cnn(C)c(=O)c1-n1nc(-c2ccc(Cl)cc2)cc1C ?
70

Could you tell me which Plant response rating, Crabgrass, Large is on file for Cc1cc(-c2ccc(Cl)cc2)nn1-c1c(OS(=O)(=O)c2ccccc2)cnn(C)c1=O ?
90

Could you tell me which Plant response rating, Crabgrass, Large is on file for Cn1ncc(O)c(-n2nc(-c3ccc(Cl)cc3)cc2C2CC2)c1=O ?
30

Could you tell me which Plant response rating, Crabgrass, Large is on file for Cc1cc(-c2ccc(Cl)cc2)nn1-c1c(OC(=O)Oc2ccccc2)cnn(C)c1=O ?
60

Could you tell me which Plant response rating, Crabgrass, Large is on file for CCCc1cc(-c2ccc(Cl)cc2)nn1-c1c(O)cnn(C)c1=O ?
10

Could you tell me which Plant response rating, Crabgrass, Large is on file for CCOC(=O)Oc1cnn(C)c(=O)c1-n1nc(-c2ccc(Cl)cc2)cc1C ?
90

Could you tell me which Plant response rating, Crabgrass, Large is on file for CC(C)Cc1cc(-c2ccc(Cl)cc2)nn1-c1c(O)cnn(C)c1=O ?
0

Could you tell me which Plant response rating, Crabgrass, Large is on file for Cc1cc(-c2ccc(Cl)cc2)nn1-c1c(OS(=O)(=O)C(C)C)cnn(C)c1=O ?
50

----------
Tested on: corn (Zea mays)
procedure-text: Test A pre-/postemergence plant response
Assay type: in vivo
condition: Preemergence, 500 g ai/ha; 0 to 100 scale (0 no effect, 100 complete control)
readout-name: Plant response rating, Corn

Could you tell me which Plant response rating, Corn is on file for Cc1cc(-c2ccc(C(F)(F)F)cc2)nn1-c1c(O)c(C(F)(F)F)nn(C)c1=O ?
0

Could you tell me which Plant response rating, Corn is on file for Cc1nc(-c2ccc(Cl)cc2)nn1-c1c(O)cnn(C)c1=O ?
40

Could you tell me which Plant response rating, Corn is on file for CCc1cc(-c2ccc(C(F)(F)F)cc2)nn1-c1c(O)c(C)nn(C)c1=O ?
90

Could you tell me which Plant response rating, Corn is on file for Cc1cc(-c2ccc(OC(F)(F)F)cc2)nn1-c1c(O)cnn(C)c1=O ?
60

----------
System: wild oat (Avena fatua)
procedure-text: Test B pre-/postemergence plant response
Assay type: in vivo
condition: Preemergence; 16 g ai/ha; scale 0 to 100
I'd be grateful if you could share measured Oat, Wild plant response rating for these entries.
// print number alone

Could you tell me which Oat, Wild plant response rating is on file for CCc1c(C)c(-c2ccc(Br)cc2)nn1-c1c(O)cnn(C)c1=O [Compound 83] ?
30

Could you tell me which Oat, Wild plant response rating is on file for Cc1cc(-c2ccc(Cl)cc2)nn1-c1c(OC(=O)c2cccs2)cnn(C)c1=O [Compound 52] ?
30

Could you tell me which Oat, Wild plant response rating is on file for CCc1cc(-c2ccc(Br)cc2)nn1-c1c(O)c(C)nn(C)c1=O [Compound 74] ?
70

Could you tell me which Oat, Wild plant response rating is on file for CCCc1cc(-c2ccc(Cl)cc2)nn1-c1c(O)cnn(C)c1=O [Compound 76] ?
0

Could you tell me which Oat, Wild plant response rating is on file for CCOC(=O)Oc1cnn(C)c(=O)c1-n1nc(-c2ccc(Cl)cc2)cc1C [Compound 53] ?
65

Could you tell me which Oat, Wild plant response rating is on file for CCCc1cc(-c2ccc(C(F)(F)F)cc2)nn1-c1c(O)cnn(C)c1=O [Compound 72] ?
80
